This collection of values is drawn from the supplement of paper PMC9112550.

system: Escherichia coli TOP10; experiment: shrunken log2 fold change of peptide-encoding DNA abundance (4.5 h post-induction vs induction); higher = less antimicrobial activity (less host growth inhibition); conditions: time post-induction: 4.5 h; library: site-saturation at positions 5, 18, 19, 20;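 also: peptides expressed intracellularly from a pBAD plasmid library in pooled LB shake-flask culture, induced with 0.3% L-arabinose, DNA abundance read by NGS, three biological replicates, DESeq2 with apeglm shrinkage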
Returns one of Criterion met or Criterion not met; Criterion met when shrunken log2 fold change is >= 0.1.

For orientation, consider the following solved cases.
1) RRIRYRPPRLPRPRPRPVLWPRP ... Criterion not met
2) RRIRQRPPRLPRPRPRPTWSPRP ... Criterion met
3) RRIRPRPPRLPRPRPRPCAGPRP ... Criterion met
4) RRIRSRPPRLPRPRPRPKMRPRP ... Criterion met
5) RRIRSRPPRLPRPRPRPFYFPRP ... Criterion not met

Kindly review the next sequence as well.
Kindly determine if shrunken log2 fold change recorded for RRIRFRPPRLPRPRPRPELFPRP is above or exactly 0.1.
Criterion met
